molecular target: UniProtKB O60885; assay: HTRF binding assay, BRD4 (D1+D2)

# sample-smiles, IC50, nM
records = [
    ("CCc1nnc(C[C@@H]2N=C(c3ccc(Cl)cc3)c3c(sc(C)c3C)-n3c(C)nnc32)o1", 25),
]

* * *

target: BRDT(D1) (Homo sapiens (Human)); experiment: HTRF binding assay, BRDT (D1)
Catalogue of IC50 readings, one per entry.

# molecule, IC50 / nM
measured = [
    ("Cc1sc2c(c1C)C(c1ccc(Cl)cc1)=N[C@@H](Cc1nnc(C3CC3)o1)c1nnc(C)n1-2 [Compound 20]", 49),
    ("CCc1nnc(C[C@@H]2N=C(c3ccc(Cl)cc3)c3c(sc(C)c3C)-n3c(C)nnc32)o1 [Compound 22]", 46),
    ("CCOCc1nnc(C[C@@H]2N=C(c3ccc(Cl)cc3)c3c(sc(C)c3C)-n3c(C)nnc32)o1 [Compound 6]", 46),
    ("Cc1sc2c(c1C)C(c1ccc(Cl)cc1)=N[C@@H](Cc1nnc(C(C)C)o1)c1nnc(C)n1-2 [Compound 19]", 51),
]
